# Test system: cancer cell lines with wild-type p53 / mutated or deleted p53 (ATCC)
# assay_remarks: Cell growth assay (WST-8), other cancer cell lines
# Assay type: cell-based
# measurement_context: Homo sapiens, PC-3, Table 19D; PC3 cells; read-out: PC3 IC50
pIC50: −log10 of the molar value.
Please provide measured pIC50 for the entries that follow.

Please review the following examples before continuing.
| molecule | pIC50 |
| --- | --- |
| CN1CCC(NC(=O)[C@@H]2N[C@H](CC(C)(C)C)[C@]3(C(=O)Nc4cc(Cl)ccc43)[C@H]2c2cccc(Cl)c2F)CC1 | < 5.52 |
| CN1CCC(CNC(=O)[C@@H]2N[C@H](CC(C)(C)C)[C@]3(C(=O)Nc4cc(Cl)ccc43)[C@H]2c2cccc(Cl)c2F)CC1 | < 5.52 |
| CC(C)(C)C[C@H]1N[C@@H](C(=O)NCCC2CCC(O)C2)[C@H](c2cccc(Cl)c2)[C@@]12C(=O)Nc1cc(F)c(F)cc12 (some centres unmarked) | < 5.00 |
| CC(C)(C)C[C@H]1N[C@@H](C(=O)NCC[C@H](O)CO)[C@H](c2cccc(F)c2)[C@@]12C(=O)Nc1cc(F)c(F)cc12 | < 5.00 |

Fill blank: measured pIC50 of the molecule CC(C)(C)C[C@H]1N[C@@H](C(=O)NCC[C@H](O)CO)[C@H](c2ccc(F)c(F)c2)[C@@]12C(=O)Nc1cc(F)c(F)cc12 is ____.
< 5.00

----------
# assay_remarks: In vitro microsomal stability, human
# Format: in vitro ADME
# measurement_context: 0 min
experimental_readout: % of compound remaining when incubated in human liver microsomes with NADPH (%)
One number for each entry, in %.

| compound | val |
| --- | --- |
| CC(O)C(O)CCNC(=O)[C@@H]1N[C@H](CC(C)(C)C)[C@]2(C(=O)Nc3cc(Cl)c(F)cc32)[C@H]1c1cccc(Cl)c1 (stereo partly shown) | 100.00 |
| CC(C)(C)C[C@H]1N[C@@H](C(=O)NC2CC(O)C2)[C@H](c2cccc(Cl)c2F)[C@@]12C(=O)Nc1cc(Cl)ccc12 (stereo partly shown) | 100 |
| CC(C)(C)C[C@H]1N[C@@H](C(=O)N[C@H]2C[C@@H](O)C2)[C@H](c2cccc(Cl)c2F)[C@@]12C(=O)Nc1cc(Cl)ccc12 (stereo in doubt) | 100.00 |

Next:
Given the compound CC(C)(C)C[C@H]1N[C@@H](C(=O)N[C@H]2C[C@@](C)(O)C2)[C@H](c2cccc(Cl)c2F)[C@@]12C(=O)Nc1cc(Cl)ccc12 , what is its reported % of compound remaining when incubated in human liver microsomes with NADPH?
100

----------
# target_under_test: recombinant human His-tagged MDM2 protein (residues 1-118) (Homo sapiens (Human), UniProt Q00987)
# Sequence (Q00987 1-118): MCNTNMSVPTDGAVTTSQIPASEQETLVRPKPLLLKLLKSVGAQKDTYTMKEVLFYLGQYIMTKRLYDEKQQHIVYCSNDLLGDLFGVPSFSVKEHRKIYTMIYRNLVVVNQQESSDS
# assay_remarks: Fluorescence-polarization MDM2 binding assay;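 note: fluorescence polarization read after three hours of incubation in potassium phosphate buffer containing bovine gamma globulin and Triton X-100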
# measurement_context: Table 19B; read-out: Binding affinities to MDM2 protein as determined by FP based assay IC50
experimental_readout: IC50

| compound | IC50 |
| --- | --- |
| O=C(NCC[C@H](O)CO)[C@@H]1N[C@H](CC2CCCCC2)[C@]2(C(=O)Nc3cc(Cl)c(F)cc32)[C@H]1c1cccc(Cl)c1 [MI-716C] | < 1000 nM |
| CCCC(C)(C)C[C@H]1N[C@@H](C(=O)NCC[C@H](O)CO)[C@H](c2cccc(Cl)c2)[C@@]12C(=O)Nc1cc(Cl)c(F)cc12 [MI-729] | < 1000 nM |
| CN1[C@@H](C(=O)NCC[C@H](O)CO)[C@H](c2cccc(Cl)c2F)[C@@]2(C(=O)Nc3cc(F)c(F)cc32)[C@H]1CC(C)(C)C [MI-718] | > 3000 nM |
| CN1[C@@H](C(=O)NCC[C@H](O)CO)[C@H](c2cccc(Cl)c2)[C@@]2(C(=O)Nc3cc(Cl)c(F)cc32)[C@H]1CCC1CCCC1 [MI-713] | < 10000 nM |
| CN1[C@@H](C(=O)NCC[C@H](O)CO)[C@H](c2cccc(Cl)c2)[C@@]2(C(=O)Nc3cc(Cl)c(F)cc32)[C@H]1CC(C)(C)C [MI-708A] | > 3000 nM |
| CN1[C@@H](C(=O)NCC[C@H](O)CO)[C@H](c2cccc(Cl)c2)[C@@]2(C(=O)Nc3cc(Cl)c(F)cc32)[C@H]1CC(C)(C)C [MI-717] | > 3000 nM |
| CC(C)CC(C)(C)C[C@H]1N(C)[C@@H](C(=O)NCC[C@H](O)CO)[C@H](c2cccc(Cl)c2)[C@@]12C(=O)Nc1cc(Cl)c(F)cc12 [MI-726] | < 5000 nM |
| CC(C)(C)C[C@H]1N[C@@H](C(=O)NCC[C@H](O)CO)[C@H](c2cccc(Cl)c2)[C@@]12C(=O)Nc1c(Cl)cccc12 [MI-727] | > 10000 nM |

Would you be so kind as to report IC50 for each listed record?
1. O=C(NCC[C@H](O)CO)[C@@H]1N[C@H](CCc2ccco2)[C@]2(C(=O)Nc3cc(Cl)c(F)cc32)[C@H]1c1cccc(Cl)c1 [MI-715C]
2. CC(C)(C)C[C@H]1N[C@@H](C(=O)NCC[C@H]2CC[C@@H](O)C2)[C@H](c2cccc(Cl)c2F)[C@@]12C(=O)Nc1cc(Cl)ccc12 [MI-754]

1. < 5000 nM
2. < 1000 nM

I need IC50 for every entry listed below, if you could help.
1. CC(C)CC(C)(C)C[C@H]1N(C)[C@@H](C(=O)NCC[C@H](O)CO)[C@H](c2ccc(F)c(Cl)c2)[C@@]12C(=O)Nc1cc(F)c(F)cc12 [MI-738]
2. O=C(NCC[C@H](O)CO)[C@@H]1N[C@H](CCc2cccs2)[C@]2(C(=O)Nc3cc(Cl)c(F)cc32)[C@H]1c1cccc(Cl)c1 [MI-703]

["> 3000 nM", "> 1000 nM"]
